Molecular target: Epidermal growth factor receptor (Homo sapiens, UniProt P00533)
Sequence (P00533 whole entry): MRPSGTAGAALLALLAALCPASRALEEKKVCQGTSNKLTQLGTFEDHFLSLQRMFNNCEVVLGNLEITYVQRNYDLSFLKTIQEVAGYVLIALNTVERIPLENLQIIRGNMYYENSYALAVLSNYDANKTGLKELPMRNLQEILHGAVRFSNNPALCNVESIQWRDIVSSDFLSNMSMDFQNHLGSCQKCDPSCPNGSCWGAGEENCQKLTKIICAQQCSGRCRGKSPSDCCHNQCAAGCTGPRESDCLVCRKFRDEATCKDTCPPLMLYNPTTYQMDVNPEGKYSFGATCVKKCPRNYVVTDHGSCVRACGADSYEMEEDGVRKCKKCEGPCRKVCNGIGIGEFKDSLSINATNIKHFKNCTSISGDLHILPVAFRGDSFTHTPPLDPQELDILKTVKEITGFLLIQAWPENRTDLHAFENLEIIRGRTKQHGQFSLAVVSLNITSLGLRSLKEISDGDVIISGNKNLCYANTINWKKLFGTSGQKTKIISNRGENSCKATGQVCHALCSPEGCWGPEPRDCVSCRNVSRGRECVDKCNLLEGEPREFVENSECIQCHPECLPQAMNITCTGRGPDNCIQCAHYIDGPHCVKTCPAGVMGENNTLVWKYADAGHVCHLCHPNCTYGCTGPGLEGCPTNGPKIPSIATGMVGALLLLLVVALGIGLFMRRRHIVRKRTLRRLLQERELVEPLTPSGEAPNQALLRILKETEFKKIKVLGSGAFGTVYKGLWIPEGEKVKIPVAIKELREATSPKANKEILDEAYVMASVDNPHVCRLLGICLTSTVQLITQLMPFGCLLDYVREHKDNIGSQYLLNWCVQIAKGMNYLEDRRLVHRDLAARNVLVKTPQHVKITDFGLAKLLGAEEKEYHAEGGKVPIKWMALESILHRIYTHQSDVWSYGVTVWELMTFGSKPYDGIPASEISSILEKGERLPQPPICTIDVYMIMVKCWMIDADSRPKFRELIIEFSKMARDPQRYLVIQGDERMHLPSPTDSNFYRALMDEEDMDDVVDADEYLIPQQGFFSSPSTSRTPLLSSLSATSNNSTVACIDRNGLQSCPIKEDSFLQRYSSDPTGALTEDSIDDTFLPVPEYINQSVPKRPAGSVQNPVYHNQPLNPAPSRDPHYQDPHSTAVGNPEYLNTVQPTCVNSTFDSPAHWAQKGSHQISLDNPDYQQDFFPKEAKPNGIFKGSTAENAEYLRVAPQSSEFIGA
pIC50: −log10 of the molar value.

>  <cpd_smiles>
CC(C)=CC[C@@H](OC(=O)/C=C\C(=O)c1ccc(C)c(C)c1)C1=CC(=O)c2c(O)ccc(O)c2C1=O

>  <measurement_qualifier>
=

>  <pIC50>
6.93

$$$$
>  <cpd_smiles>
CC(C)=CC[C@@H](OC(=O)/C=C\C(=O)c1ccc(C)c(Br)c1)C1=CC(=O)c2c(O)ccc(O)c2C1=O

>  <measurement_qualifier>
<

>  <pIC50>
6.82

$$$$
>  <cpd_smiles>
CCc1ccc(C(=O)/C=C\C(=O)O[C@H](CC=C(C)C)C2=CC(=O)c3c(O)ccc(O)c3C2=O)cc1

>  <measurement_qualifier>
=

>  <pIC50>
7.29

$$$$
>  <cpd_smiles>
CC(C)=CC[C@@H](OC(=O)/C=C\C(=O)c1cc(Cl)ccc1C)C1=CC(=O)c2c(O)ccc(O)c2C1=O

>  <measurement_qualifier>
=

>  <pIC50>
6.84

$$$$
>  <cpd_smiles>
CC(C)=CC[C@@H](OC(=O)/C=C\C(=O)c1ccc(C)cc1C)C1=CC(=O)c2c(O)ccc(O)c2C1=O

>  <measurement_qualifier>
<

>  <pIC50>
6.82

$$$$
